B1: CAMK2D (parent)
chain: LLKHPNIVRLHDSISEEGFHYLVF

variants of: B1; assay: protein stability index of a GFP-peptide fusion (GPS, HEK-293T) (PSI 1-6); higher = more stable; details: c terminus: a fixed tail appended;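 further: lentivirally expressed fusions sorted by FACS into six bins by GFP to DsRed ratio, PSI derived from sequencing read proportions per bin multiplied by bin number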
Kindly return criterion met if reported protein stability index is no lower than 2; return criterion not met if it is lower.

• V8G = criterion met
• V8L = criterion met
• L22R = criterion not met
• G18Y = criterion not met
• R9K = criterion met
• S15Y = criterion met
• H11K = criterion met
• D12R = criterion met
• H20V = criterion met
• R9E = criterion met
• E17Q = criterion not met
• D12I = criterion met
• D12G = criterion met
• L22T = criterion met
• N6F = criterion met
• L10G = criterion not met
• L1D = criterion met
• L22P = criterion not met
• F24S = criterion met
• L2W = criterion met
• V23Q = criterion not met
• I7P = criterion not met
• L1F = criterion met
• L2A = criterion met
• H20F = criterion met
• S15A = criterion met
• L22G = criterion not met
• N6V = criterion met
• I7K = criterion not met
• E17F = criterion met
• P5K = criterion met
• G18S = criterion met
• I14R = criterion not met
• P5F = criterion met
• R9A = criterion met
• I7W = criterion not met
• R9G = criterion not met
• R9M = criterion met
• I7S = criterion not met
• V23D = criterion met

Where do the numbers come from? From the supplement of paper PMC10567573.
